test-system: complete β-kinase domain of the human insulin receptor (CKD) (Homo sapiens)
Construct: The complete β-kinase domain of the human insulin receptor (CKD); made in house
Sequence (P06213 1023-1298 limits assumed): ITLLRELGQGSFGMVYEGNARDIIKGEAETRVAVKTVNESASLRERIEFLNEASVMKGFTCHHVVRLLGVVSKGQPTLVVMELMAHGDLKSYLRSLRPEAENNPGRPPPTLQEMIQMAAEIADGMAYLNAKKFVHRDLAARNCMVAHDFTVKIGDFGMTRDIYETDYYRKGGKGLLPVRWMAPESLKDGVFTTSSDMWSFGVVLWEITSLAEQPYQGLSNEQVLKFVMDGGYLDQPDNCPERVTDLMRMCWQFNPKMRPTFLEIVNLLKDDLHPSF
assay-overview: 32P-CKD autophosphorylation assay
Assay type: biochemical
condition-set: 10 min; compound at 10 μM; phosphorylation of CKD expressed as % of the vehicle level; read-out: Activity (% vs. control)
assay-endpoint: activity at 10 µM (%)

O=C(Nc1ccc(/C=C/c2ccccc2)cc1C(=O)O)c1cc(O)cc(O)c1 [Compound 41] ... 80
CNc1ccc(C(=O)Nc2ccc(/C=C/c3ccc(C(=O)O)cc3)cc2C(=O)O)cc1 [Compound 23] ... 112

[P] COc1ccc(/C=C/c2ccc(N(C)C(=O)c3ccccc3)c(C(=O)O)c2)cc1 [Compound 28]
[Q] COc1cccc(C(=O)Nc2ccc(/C=C/c3ccccc3)cc2C(=O)O)c1 [Compound 42]
Which value of activity at 10 µM is numerically greater: that of P or that of Q ? Lab log: write the label of the selected item as the result.
Q

All values here come from patent US6479548B2.
